# experimental_target: UniProt Q12809
# Sequence (Q12809 whole entry): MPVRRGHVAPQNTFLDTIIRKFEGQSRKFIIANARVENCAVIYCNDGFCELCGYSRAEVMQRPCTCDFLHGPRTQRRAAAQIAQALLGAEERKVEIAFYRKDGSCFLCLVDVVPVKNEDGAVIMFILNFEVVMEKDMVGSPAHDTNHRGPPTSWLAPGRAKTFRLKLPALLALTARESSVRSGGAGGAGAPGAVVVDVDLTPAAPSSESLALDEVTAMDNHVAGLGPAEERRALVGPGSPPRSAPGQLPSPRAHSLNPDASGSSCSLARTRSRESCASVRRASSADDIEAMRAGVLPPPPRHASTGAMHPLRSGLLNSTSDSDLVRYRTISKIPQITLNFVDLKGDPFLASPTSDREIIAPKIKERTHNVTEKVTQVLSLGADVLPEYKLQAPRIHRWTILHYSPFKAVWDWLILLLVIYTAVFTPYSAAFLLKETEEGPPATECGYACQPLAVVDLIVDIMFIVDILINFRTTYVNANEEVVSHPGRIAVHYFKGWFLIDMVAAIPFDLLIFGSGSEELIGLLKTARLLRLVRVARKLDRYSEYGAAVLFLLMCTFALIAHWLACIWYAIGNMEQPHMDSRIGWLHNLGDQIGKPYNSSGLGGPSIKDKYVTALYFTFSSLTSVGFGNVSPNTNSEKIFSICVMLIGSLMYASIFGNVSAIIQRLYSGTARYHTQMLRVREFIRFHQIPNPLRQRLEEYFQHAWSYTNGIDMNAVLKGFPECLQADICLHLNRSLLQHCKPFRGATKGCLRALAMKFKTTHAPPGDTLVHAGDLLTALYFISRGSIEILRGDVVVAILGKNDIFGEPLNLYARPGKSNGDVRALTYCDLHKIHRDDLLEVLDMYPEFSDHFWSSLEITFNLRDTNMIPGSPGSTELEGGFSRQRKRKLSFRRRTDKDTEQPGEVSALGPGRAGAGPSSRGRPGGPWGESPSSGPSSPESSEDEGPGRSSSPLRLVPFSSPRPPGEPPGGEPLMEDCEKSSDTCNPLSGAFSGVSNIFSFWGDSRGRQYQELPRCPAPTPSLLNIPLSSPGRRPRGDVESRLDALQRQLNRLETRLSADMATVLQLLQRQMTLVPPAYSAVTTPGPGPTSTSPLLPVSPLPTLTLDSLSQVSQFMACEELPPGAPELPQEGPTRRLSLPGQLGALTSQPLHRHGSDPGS
# test_protocol: Inhibition of human ERG channel by patch clamp assay
value_type: IC50 (µM)

[
  {
    "molecular_string": "C[N+](C)(CCCCNC(=O)Cc1ccc(OCc2ccccc2)cc1)CCNC(=O)c1nc(Cl)c(N)nc1N.[Br-]",
    "endpoint_unit": "µM",
    "readout_number": 10.8
  }
]

###

Each entry below lists one item and its recorded solubility thermodynamic at 24 h value.
# test_protocol: Thermodynamic solubility of the compound at pH 6.8 after 24 hrs of post-equilibriation by shake-flask method
# Format: physicochemical
# experimental_context: buffer, read-out: Therm_solubility
value_type: solubility thermodynamic at 24 h (µg/mL)

[
  {
    "molecular_string": "COc1ccc(CCC[N+](C)(C)CCNC(=O)c2nc(Cl)c(N)nc2N)cc1.[Br-]",
    "endpoint_unit": "µg/mL",
    "readout_number": 5000
  },
  {
    "molecular_string": "COc1ccc(CCC[N+](C)(CCCc2ccc(OC)cc2)CCNC(=O)c2nc(Cl)c(N)nc2N)cc1.[Br-]",
    "endpoint_unit": "µg/mL",
    "readout_number": 900
  }
]
